target: T1, SARS-Cov2 Spike Active Trimer SAT (R&D Systems; Catalog No. 10549-CV) (SARS-CoV-2, UniProt P0DTC2 16-1211); experiment: ELISA, serially diluted purified Nb-Fc against SAT antigen
T1 construct: also called SARS-COV2 Spike Active Trimer protein; recombinant SAT protein
# note: boundary value 0.06 nM maps to Criterion not met; EC50 below it maps to Criterion met

Answered cases to consult:
- Binder: "MS521_35 Nb-Fc (Fc fusion, also called LVGN-S52135) EVQLQQSGPELVKPGASVKISCKASGYTFTDYYMKWVKQRHGQSLEWIGNINPTNGDTNYSQNFKGKATLTVDKSSTTAYMELRSLTSEDSAVYYCARLEDGYYGYAVDYWGQGTSVTVSS"
  Category: "Criterion met"
- Binder: "M2S320_75 Nb-Fc (Fc fusion, also called LVGN-S32075) EVQLQQSGPELVKPGASVKMSCKASGYTFTDYYMKWLKQNHGKSLEWIGDINPNNGDTFYNQKFKGKATLTVDTSSSTAYMQLNSLTSEDSAVYYCARKEYGDYGYATDYWGQGTSVTVSS"
  Category: "Criterion not met"
- Binder: "M2S521_623 Nb-Fc (Fc fusion, also called LVGN-S521623) EVQLQQSGPELVKPGASVKISCKASGYTFTDYYMKWEKQSHGKSLEWIGDINPNNGGTRYNQKFRGKATLTVDKSSSTAYMELRSLTSEDSAVYYCARLEDDYYGYAVDYWGQGTSVTVSS"
  Category: "Criterion met"
- Binder: "M2S521_378 Nb-Fc (Fc fusion, also called LVGN-S521378) EVQLQQSGPELVKPGASVKISCKASGYTFTDYYMKWVKQSHGKSLEWIGDINPKNGGTNYNQKFKDKATLTVDKSSSTAYMELRSLTSEDSAVYYCARLEDGYYGYAIDYWSQGTSVTVSS"
  Category: "Criterion not met"
- Binder: "M2S521_72 Nb-Fc (Fc fusion, also called LVGN-S52172) EVQLQQSGPELVKPGASVKISCKASGYTFTDYYMKWAKQSHGKSLEWIGHINPVNGDTSYNQKFKGKATLTVDKSSSTVYMELRSLTSEDSAVYYCARLEDGYYGYTMDYWGQGTSVTVSS"
  Category: "Criterion not met"
- Binder: "M2S521_193 Nb-Fc (Fc fusion, also called LVGN-S521193) EVQLQQSGPELVKPGASVKISCKASGYTFTDYYMKWVKQSHGKSLEWIGDINPNNGGARYNQKFKGRATLTVDKSSSTAYMELRSLTSEDSAVYYCSRLEDGYYGYAVDYWGQGTSVTVSS"
  Category: "Criterion not met"
- Binder: "M2S320_377 Nb-Fc (Fc fusion, also called LVGN-S320377) EVQLQQSGPELVKPGASVKMSCKASGYTFTDYYVKWKKQSHGKSLEWIGDINPNNGDTFYNQKFKDKATLTVDKSSSTAYMQLNSLTSEDSAVYYCARKEYGNFGYAVDYWGQGTSVTVSS"
  Category: "Criterion not met"

Now look at this entry.
input: Strictly below 0.06 nM in EC50? M320_5 Nb-Fc (Fc fusion, also called LVGN-S3205) EVQLQQSGPELVKPGASVKMSCKASGYTFTDYYIKWEKQSHGKSLEWIGDINPKNGETFYNQQFKGKATLTVDKSSSTAYMQLNSLTSEDSAVYYCARKEYGDYGYAVDYWGQGTSVTVSS
output: Criterion met
